Record set: pKi | 5-hydroxytryptamine receptor 2A (Rattus norvegicus) | literature, multiple sources.
Interpret pKi as the negative base-10 log of the concentration measured in mol/L.

>>> print(df.to_string())
                                   compound  measured_attribute  measured_number
0    O=C(NCCN1CCN(c2cccc(Cl)c2)CC1)c1ccccn1                 pKi             6.51
1  C(=C(\c1ccccc1)C1CCN(CCc2ccccc2)CC1)/c1ccccc1                 pKi             7.72
2  O=C1CC(CN2CCC(c3noc4cc(F)ccc34)CC2)Cc2ccccc21 (stereo not given)                 pKi             8.57

GET /values?item= `O=C1CCc2cc(CCCN3CCN(c4cccc(Cl)c4Cl)CC3)cc3c2N1CCC3` &system= 5-hydroxytryptamine receptor 2A (Rattus norvegicus) returns pKi: 6.73
